Molecular target: hM5 (Homo sapiens, UniProt P08912)
Construct: expressed in transfected cells
Sequence (P08912 1-532): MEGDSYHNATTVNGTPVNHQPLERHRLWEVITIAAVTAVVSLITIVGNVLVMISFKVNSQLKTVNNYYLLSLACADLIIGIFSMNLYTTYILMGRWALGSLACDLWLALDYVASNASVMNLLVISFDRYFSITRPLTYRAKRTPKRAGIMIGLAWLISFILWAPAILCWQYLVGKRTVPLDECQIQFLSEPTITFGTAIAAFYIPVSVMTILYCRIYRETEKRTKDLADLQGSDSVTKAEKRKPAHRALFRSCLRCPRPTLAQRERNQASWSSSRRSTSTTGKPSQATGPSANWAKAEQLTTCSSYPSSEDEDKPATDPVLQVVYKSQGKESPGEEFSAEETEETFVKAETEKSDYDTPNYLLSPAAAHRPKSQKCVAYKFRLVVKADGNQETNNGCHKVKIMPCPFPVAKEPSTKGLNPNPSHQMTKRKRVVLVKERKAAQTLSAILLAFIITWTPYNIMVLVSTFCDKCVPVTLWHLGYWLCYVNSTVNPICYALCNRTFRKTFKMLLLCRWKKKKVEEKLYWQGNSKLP
Assay: Calcium mobilization concentration-response (IC50 vs EC80 acetylcholine), CHO hM5
Type: cell-based
Settings: CELL LINE hM5; vs EC80 acetylcholine; read-out: IC50
pIC50: −log10 of the molar value.
Please use Satisfied whenever pIC50 is not below 7, and Not satisfied whenever it is.

Does the compound [2H]C1([2H])CC(c2cn3ncnc3c(F)c2C)CC([2H])([2H])N1S(=O)(=O)c1cnn(C)c1C(F)F have recorded pIC50 that is 7 or more? Satisfied

Test whether the compound [2H]c1nc2cc(Cl)c(C3=CCN(S(=O)(=O)c4cnc(C)o4)CC3)cn2n1 records pIC50 of 7 or higher. Satisfied

Please indicate if the recorded pIC50 for Cn1ncc(S(=O)(=O)N2CCC(c3c4c(nn3C)CCCC4)CC2)c1Cl meets or exceeds 7. Not satisfied

Decide: pIC50 of Cc1cc2ncnn2cc1C1CCN(S(=O)(=O)c2scnc2C)CC1 >= 7? Not satisfied

Would you say Cn1ncc(S(=O)(=O)N2CCC(c3cn4ncnc4cc3C(F)(F)F)CC2)c1CC#N shows pIC50 at minimum 7? Not satisfied

Reported pIC50 reaches at least 7 for Cc1cc2ncnn2cc1C1CCN(S(=O)(=O)c2cnc(Cl)s2)CC1 ? Not satisfied

Given CCc1cc2ncnn2cc1C1CCN(S(=O)(=O)c2nncn2C)CC1 , state whether its pIC50 is at least 7. Not satisfied

Kindly determine if pIC50 recorded for [2H]C([2H])([2H])OCc1c(S(=O)(=O)N2CCC(c3cn4ncnc4cc3C)CC2)cnn1C is above or exactly 7. Not satisfied

Evaluate Cc1ncc(S(=O)(=O)N2CCC(c3cn4ncnc4cc3CF)CC2)o1 : pIC50 at minimum 7? Not satisfied

Is pIC50 at least 7? Consider Cc1nnc(S(=O)(=O)N2CCC(c3cn4ncnc4cc3C)CC2)s1 Satisfied

Confirm if pIC50 reported for the compound COC1(c2cn3ncnc3cc2C)CCN(S(=O)(=O)c2cnn3c2OCCC3)CC1 is 7 or above. Not satisfied

Tell me whether pIC50 is at least 7 here: Cc1cc2nccn2nc1N1CCN(S(=O)(=O)c2cnn(C)c2C)CC1 Satisfied

Decide: pIC50 of Cn1cnnc1S(=O)(=O)N1CCC(c2cn3ncnc3cc2Cl)CC1 >= 7? Not satisfied

Textbook exercise: given the entry Cn1ncc(S(=O)(=O)N2CCC(c3ccc4ncnn4c3)CC2)c1CC#N , state whether its pIC50 is greater than or equal to 7. Not satisfied
